Hey, just so you know, these numbers are from patent US20240189443A1.

Biological target: T1, human PD-L1 on cell strain HEK293T/hPD-L1 (human, UniProt Q9NZQ7 19-290)
T1 construct: whole, on cells
T1 sequence (Q9NZQ7 19-290): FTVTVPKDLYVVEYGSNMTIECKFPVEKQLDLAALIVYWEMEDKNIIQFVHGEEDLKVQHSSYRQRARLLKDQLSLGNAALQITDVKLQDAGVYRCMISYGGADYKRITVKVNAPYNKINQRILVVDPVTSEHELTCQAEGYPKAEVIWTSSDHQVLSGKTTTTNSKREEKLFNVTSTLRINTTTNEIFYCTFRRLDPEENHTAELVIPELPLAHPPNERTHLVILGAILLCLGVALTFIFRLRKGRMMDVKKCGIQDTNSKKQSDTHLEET
Test: flow cytometry on HEK293T/hPD-L1, 10 µg/mL, anti-human IgG Fc (FITC)
Metric name: binding result

anti-human PD-L1 nanobody h_Nb4 (Fc fusion, not shown: Fc of human IgG1 from vector pFUSE-hIgG1-Fc) DVQLQESGGGLVQAGGSLRLSCAAPSRMFSGYTMGWYRQAPGKQRELVAQIANGGFTDYIDSVKGRFSISRDTVLNMMYLQMNSLKPEDTAVYYCNLVLVNGIPTRNWGQGTQVTVSS    binds
anti-human PD-L1 nanobody h_Nb2 (Fc fusion, not shown: Fc of human IgG1 from vector pFUSE-hIgG1-Fc) DVQLQESGGGLVQPGGSLRLSCAASGFTFGDRWMYWLRQAPGKGLEWVSSINPAGRSTYYADSVKGRFTISRDNAKNTLYLQMNSLKSEDTAVYYCTKDPGGYQKGQGTQVTVSS    binds
anti-human PD-L1 nanobody h_Nb9 (Fc fusion, not shown: Fc of human IgG1 from vector pFUSE-hIgG1-Fc) DVQLQESGGGLVQPGGSLRLSCASSGSIFGLGVKGWYRQPPGNQREMVAQIISGGRISYADSVKGRFTISRDNAKNTVYLQMNSLKPEDTAVYYCNAWGPGQRNYWGRGTQVTVSS    binds
